Hello, the source for this data is PubChem BioAssay (NCI), in case you need it.

Tested on: K-562 leukemia
Experiment: NCI-60 one-dose screen, 48 h (100 = growth as untreated, 0 = no growth, -100 = all killed)
Details: 10 µM unless noted
The panel holds about 83,000 compounds, 20% with a hit somewhere; the sample as a whole holds those more often.
Classify on growth using one (below 30%), two (30% to below 90%), three (90% or more)

// below: answered compounds
{"compound": "COc1ccccc1-n1c(SCc2cc(OC)c(OC)c(OC)c2)nc2ccc(Cl)cc2c1=O", "class": "one"}
{"compound": "O=C1NC(=O)C2(CCCC2C(=O)O)N1 (stereo not given)", "class": "three"}
{"compound": "O=C1CC2c3cc(-c4cc5ccccc5o4)ccc3CCN2C(=O)N1c1ccccc1 (stereo not given)", "class": "two"}
{"compound": "COc1ccc(OC)c(C2C(C#N)=C(N)Oc3cc(O)ccc32)c1 (stereo not given)", "class": "two"}
{"compound": "CC(C)(C)[Si](C)(C)OC1[C@@H](O[Si](C)(C)C(C)(C)C)[C@@H](CNC(=O)NC(=O)C(F)(F)F)O[C@H]1n1cnc2c(NC(=O)Nc3ccccc3)ncnc21 (stereo not given in full)", "class": "one"}
{"compound": "COc1nc2c(cc1S(=O)(=O)c1ccccc1)CCc1c-2cnn1-c1ccccc1", "class": "two"}

IN: # bin lookup: classify `Cc1nc(-c2ccccc2)cc2c(O)c(C(=O)N/N=C/Cc3ccccc3)[nH]c(=O)c12` by its growth
OUT: two

IN: Which of the defined bands does the recorded growth of `O=C(O)c1ccccc1Oc1cc(-c2ccco2)nc(OCCBr)n1` sit within?
OUT: three

IN: Which class is correct for the following compound? COc1cc(C2CC(=O)Nc3c2ccc2ccccc32)cc(Br)c1OC (stereo not given)
OUT: one

IN: The entry to classify is `COC(=O)[C@@]12CC[C@@H](C)[C@]3(C[C@@H](c4ccoc4)OC3=O)[C@H]1CC[C@@H]1O[C@@]12C` ; which class holds it?
OUT: three

IN: # bin label for `COc1ccc(CSc2nc3cc(OC)c(OC)cc3c(=O)n2-c2ccc(Cl)cc2)cc1`
OUT: three

IN: Bin? `COc1cc(/C=C2\C(=O)N(c3c(Cl)cccc3Cl)c3ccccc32)cc(OC)c1O`
OUT: one

IN: Place this compound in its band: `ONc1nc(NO)c2[nH]cnc2n1`
OUT: one

IN: Dear colleague, I would appreciate it if you could identify the bin for `O=c1c2c(=NCCN3CCCC3)cc3c(=O)n(CCCN4CCOCC4)c(=O)c4c(-c5ccc(CN6CCCC6)cc5)cc(c(O)n1CCCN1CCOCC1)c2c4-3` and reply at your convenience.
OUT: one

IN: Category of `COc1ccc(/C=C/C(=O)N2CCC(O)CC2)cc1OC1CCCC1` :
OUT: three

IN: Each compound maps to one class by growth. Which class for `Cc1cc(=O)c2c(C)ccc(C)c2[nH]1` ?
OUT: three

###

System: SF-268 CNS
Assay: NCI-60 one-dose screen, 48 h
Settings: 10 µM unless noted
About 83,000 compounds went through this panel and 20% of them were active in at least one assay; those are over-represented in the sample as a whole. Activity calls are given as the source filed them. How the source made its calls: active means growth percent below 10; inactive means the rest.
Field 'call' accepts active, inactive

// below: answered molecules
{"molecule": "CCCCNNC(=O)c1ccc(Br)cc1", "class": "inactive"}
{"molecule": "O=C(c1cnn2c1NC(c1ccc(F)cc1)C2)N1CCCCC1 (stereo unspecified)", "class": "inactive"}
{"molecule": "COc1cc(/C=C/C(=O)C2=C(/C=C/c3ccc(O)c(OC)c3)NC(=O)NC2c2ccc(O)c(OC)c2)ccc1O (stereo unspecified)", "class": "inactive"}
{"molecule": "CCCCC(O)Cn1ncc(C(=O)OCC)c1NC(=O)NCc1ccccc1C(F)(F)F (stereo unspecified)", "class": "inactive"}
{"molecule": "COc1ccc(OC2=C(C#N)C(=N)N3c4ccccc4Sc4ccccc4C3N2)cc1 (stereo unspecified)", "class": "inactive"}

IN: Recorded test outcome, item `Oc1ccccc1/C=N/Nc1nc2ccccc2s1`
OUT: inactive

IN: Answer briefly: the call reported for C=C(C)CCCC(C)CC#N (stereo unspecified) in this assay.
OUT: inactive

IN: Kindly provide the recorded test outcome for the following molecule: CC(C)NCC(O)COc1ccc(CCOCC2CC2)cc1 (stereo unspecified)
OUT: inactive

###

Test system: UACC-62 melanoma
Assay: NCI-60 one-dose screen, 48 h
Settings: 10 µM unless noted
This is part of a sample that, as a whole, favours compounds with a hit. Of some 83,000 tested, about 20% had one in any assay. The source made the active and inactive calls. Rule for the calls: active = growth percent below 10; inactive = the rest.
Valid outcomes are listed here; reply with one: active, inactive

{"compound": "O=c1[nH]c(=O)n(Cc2ccc(F)cc2)cc1F", "class": "inactive"}
{"compound": "COc1ccc(-c2[nH]ncc2Nc2cc(OC)c(OC)c(OC)c2)cc1", "class": "inactive"}
{"compound": "O=C1CCC(N2Cc3c(C#CCCCNC(=O)c4cc5c(o4)C(=O)c4ccccc4C5=O)cccc3C2=O)C(=O)N1 (centres undefined)", "class": "active"}
{"compound": "COc1ccc(S(=O)(=O)ON=C2C=C(C)C(=O)C(C)=C2)cc1", "class": "inactive"}
{"compound": "CC(C)(C)[Si](C)(C)OC1[C@@H](COC(=O)NC(=O)CCl)O[C@@H](n2cnc3c(N)ncnc32)[C@H]1O[Si](C)(C)C(C)(C)C (some centres undefined)", "class": "inactive"}

IN: What is the recorded call for this compound in the test? `CC(=O)OC[C@H](O)[C@@]1(O)CC[C@H]2[C@@H]3CCC4=CC(=O)CC[C@]4(C)[C@H]3[C@@H](O)C[C@@]21C`
OUT: inactive

IN: Dear colleague, could you share the recorded outcome for `O=C1/C(=C/c2ccccc2F)CNC/C1=C\c1ccccc1F` when you have a moment?
OUT: active

###

System: MDA-MB-231 breast
Assay: NCI-60 one-dose screen, 48 h (100 = growth as untreated, 0 = no growth, -100 = all killed)
Conditions: 10 µM unless noted
About 83,000 compounds went through this panel and 20% of them were active in at least one assay; those are over-represented in the sample as a whole.
Decide by growth: equal to or exceeding 80% means Criterion met, less means Criterion not met.

{"compound": "COc1nc2c(cc1S(=O)(=O)c1ccccc1)CCc1c-2cnn1-c1ccccc1Cl", "class": "Criterion not met"}
{"compound": "Cn1c2ccc(Cl)cc2c2nn(C(=O)c3ccccc3)c(=O)nc21", "class": "Criterion met"}
{"compound": "Cc1nc2nc(C(F)(F)F)[nH]c2nc1C", "class": "Criterion met"}
{"compound": "O=C(CCc1nnc2sc(/C=C\\c3ccccc3)nn12)c1nc2ccccc2[nH]1", "class": "Criterion met"}
{"compound": "CCN(CC)c1ccc2c(c1)OS(=O)(=O)N=C2", "class": "Criterion met"}
{"compound": "CCN(CC)c1ccc(/C=C(\\C#N)c2cc3ccccc3[nH]2)cc1", "class": "Criterion not met"}
{"compound": "CCCCCCCC/C=C\\CCCCCCCCOc1cccc(CC(=O)NCC[N+]2(C)CCOCC2)c1", "class": "Criterion met"}
{"compound": "CCC(C)Oc1cc(/C=N/NC(=O)c2cnn3c2NC(c2ccccc2)C3)ccc1OC (stereo not given)", "class": "Criterion not met"}
{"compound": "O=c1onc(-c2ccccc2)c2ccccc12", "class": "Criterion met"}
{"compound": "COC(=O)c1c2c(c(C)[n+]([O-])c1C)C(=O)C=C(NCc1ccc(F)c(Cl)c1)C2=O", "class": "Criterion not met"}

IN: Test whether the compound `COc1cc(/C=C2\C(=O)Nc3ccccc32)cc(OC)c1O` records growth of 80% or higher.
OUT: Criterion not met

IN: Check this compound for growth at or above 80%: `COc1ccc(/C=C2\CN(Cc3cn(CCCNc4ccnc5cc(Cl)ccc45)nn3)C/C(=C\c3ccc(OC)cc3)C2=O)cc1`
OUT: Criterion not met

###

Test system: HOP-62 NSCLC
Test: NCI-60 one-dose screen, 48 h (100 = growth as untreated, 0 = no growth, -100 = all killed)
Conditions: 10 µM unless noted
This is part of a sample that, as a whole, favours compounds with a hit. Of some 83,000 tested, about 20% had one in any assay.
endpoint label: growth (%)
The answer is to be given in %; state only the numeric part.

Solved cases (4 shown):
{"molecule": "CCOC(=O)c1cnn(CC(O)c2ccc(F)cc2)c1NC(=O)Nc1ccccc1F (stereo not given)", "experimental target": "HOP-62 NSCLC", "value units": "%", "growth": 101}
{"molecule": "COc1cc(-c2nc(Nc3nc4ccccc4[nH]3)nc(N)c2C#N)cc(OC)c1OC", "experimental target": "HOP-62 NSCLC", "value units": "%", "growth": 65.1}
{"molecule": "CCCCC1COc2cccc3c(SCC(=O)N(C)c4cccc5ccccc45)cc[n+]1c23 (stereo not given)", "experimental target": "HOP-62 NSCLC", "value units": "%", "growth": 106}
{"molecule": "NC(=O)c1cc(I)ccc1NC(=O)COc1ccc(Cl)cc1Cl", "experimental target": "HOP-62 NSCLC", "value units": "%", "growth": 87.2}

# input for lookup
IN: # get_value(readout='growth', item= O=C1C2CC3C(CC2C(=O)[N]1[Sn]([c]1ccccc1)([c]1ccccc1)[c]1ccccc1)C1(Cl)C(Cl)=C(Cl)C3(Cl)C1(Cl)Cl (stereo not given) )
OUT: -92.1
